Test system: HEK293H, HEK293T, H4IIe, MCF7 and SH-SY5Y cells
cond: median cytotoxicity of all cell lines
endpoint: IC10,Median (M)

In the examples that follow, each entry is paired with its recorded IC10,Median (M).
{"smiles.structure": "Oc1ccc(C(c2ccc(O)cc2)(C(F)(F)F)C(F)(F)F)cc1", "assayed.system": "HEK293H, HEK293T, H4IIe, MCF7 and SH-SY5Y cells", "measurement": "2.28 × 10^–5 M"}
{"smiles.structure": "Cc1ccc(S(=O)(=O)NC(=O)Nc2ccc(Cc3ccc(NC(=O)NS(=O)(=O)c4ccc(C)cc4)cc3)cc2)cc1", "assayed.system": "HEK293H, HEK293T, H4IIe, MCF7 and SH-SY5Y cells", "measurement": "3.10 × 10^–5 M"}
{"smiles.structure": "O=S(=O)(c1ccc(O)cc1)c1ccc(O)cc1", "assayed.system": "HEK293H, HEK293T, H4IIe, MCF7 and SH-SY5Y cells", "measurement": "5.61 × 10^–4 M"}

Consider the record given below.
Complete the entry with IC10,Median (M) for CCC(C)(c1ccc(O)cc1)c1ccc(O)cc1
3.62 × 10^–5 M

----------
assayed.system: Peroxisome proliferator-activated receptor γ (Homo sapiens, UniProt P37231)
Sequence (P37231 238-505 limits assumed): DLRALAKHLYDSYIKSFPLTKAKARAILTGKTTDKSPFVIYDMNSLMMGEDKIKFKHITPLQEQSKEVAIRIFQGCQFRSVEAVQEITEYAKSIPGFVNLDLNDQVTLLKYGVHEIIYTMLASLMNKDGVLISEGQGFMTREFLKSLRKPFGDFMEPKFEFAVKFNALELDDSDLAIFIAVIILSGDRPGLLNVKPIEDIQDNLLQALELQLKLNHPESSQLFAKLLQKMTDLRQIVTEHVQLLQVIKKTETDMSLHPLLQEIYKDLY
procedure.summary: cell-based
cond: effect
The reader will find reported EC10, PPARγ values listed item by item below.
Reply numerically in nM, unit not repeated.

{"molecule": "Oc1ccc(Sc2ccc(O)cc2)cc1", "EC10, PPARγ (nM)": 961}
{"molecule": "CC(C)(c1cc(Cl)c(O)c(Cl)c1)c1cc(Cl)c(O)c(Cl)c1", "EC10, PPARγ (nM)": 155}

Specify EC10, PPARγ for C=CCOc1ccc(S(=O)(=O)c2ccc(O)cc2)cc1 [BPS-MAE, 4-[[4-(Allyloxy)phenyl]sulfonyl]phenol] , system Peroxisome proliferator-activated receptor γ (Homo sapiens, UniProt P37231).
557

----------
Reported values of % Loss for individual entries
procedure.summary: Abiotic CYP (aCYP) oxidation, remaining parent compound (Cparent-Ratio)
cond: Table S9, loss of parent after aCYP oxidation
Write the number in % without appending the unit.

// known answers, use as guide
{"compound": "O=C(OCc1ccccc1)c1ccc(O)cc1 [BzPB, Benzyl 4-hydroxybenzoate]", "% Loss, %": -22}
{"compound": "CC(C)Oc1ccc(S(=O)(=O)c2ccc(O)cc2)cc1", "% Loss, %": -13}
{"compound": "COC(=O)C(c1ccc(O)cc1)c1ccc(O)cc1 [Bz, Methyl bis(4-hydroxyphenyl)acetate]", "% Loss, %": -7}
{"compound": "CC1(C)[C@H](O)C(C)(C)[C@H]1O", "% Loss, %": 0.48}

Tell me its % Loss given CC(C)(c1cc(Br)c(O)c(Br)c1)c1cc(Br)c(O)c(Br)c1 as the entry.
8

----------
assayed.system: Aryl hydrocarbon receptor (Rattus norvegicus, UniProt P41738)
Sequence (P41738 10-853): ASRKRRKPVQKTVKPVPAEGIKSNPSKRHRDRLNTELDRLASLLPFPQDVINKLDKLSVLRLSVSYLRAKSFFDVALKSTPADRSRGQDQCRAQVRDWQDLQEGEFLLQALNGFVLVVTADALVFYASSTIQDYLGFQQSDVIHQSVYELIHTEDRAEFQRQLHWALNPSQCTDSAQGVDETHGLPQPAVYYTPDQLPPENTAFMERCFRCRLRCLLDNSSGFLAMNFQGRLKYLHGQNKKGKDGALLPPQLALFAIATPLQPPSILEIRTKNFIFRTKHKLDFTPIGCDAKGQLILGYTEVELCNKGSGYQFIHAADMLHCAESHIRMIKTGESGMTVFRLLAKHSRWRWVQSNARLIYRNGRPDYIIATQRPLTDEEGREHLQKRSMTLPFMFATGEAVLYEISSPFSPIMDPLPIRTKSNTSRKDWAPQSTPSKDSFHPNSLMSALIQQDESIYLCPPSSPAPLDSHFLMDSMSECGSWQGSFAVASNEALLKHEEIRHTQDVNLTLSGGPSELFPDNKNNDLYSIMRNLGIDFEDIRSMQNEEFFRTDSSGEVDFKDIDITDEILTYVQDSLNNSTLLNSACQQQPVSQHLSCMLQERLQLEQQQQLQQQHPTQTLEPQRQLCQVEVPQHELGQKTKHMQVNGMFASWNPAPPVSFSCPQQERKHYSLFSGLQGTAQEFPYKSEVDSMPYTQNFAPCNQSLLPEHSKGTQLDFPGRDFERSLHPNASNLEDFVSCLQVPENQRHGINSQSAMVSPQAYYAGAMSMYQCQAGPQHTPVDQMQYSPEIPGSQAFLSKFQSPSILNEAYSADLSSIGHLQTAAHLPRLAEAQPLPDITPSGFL
cond: Bioassay AhR; dosing range all; log-logistic model fit
endpoint: logEC10

Use the examples below as a reference point.
{"compound": "CC1(C)C(O)C(C)(C)C1O (racemic) [r-TMCD]", "assayed.system": "Aryl hydrocarbon receptor (Rattus norvegicus, UniProt P41738)", "measurement": "no effect"}
{"compound": "CC1(C)[C@H](O)C(C)(C)[C@H]1O [Trans TMCD]", "assayed.system": "Aryl hydrocarbon receptor (Rattus norvegicus, UniProt P41738)", "measurement": -2.00}
{"compound": "CCC(C)(c1ccc(O)cc1)c1ccc(O)cc1 [BPB, 4,4'-(Butane-2,2-diyl)diphenol]", "assayed.system": "Aryl hydrocarbon receptor (Rattus norvegicus, UniProt P41738)", "measurement": "no effect"}
{"compound": "Oc1ccc(Sc2ccc(O)cc2)cc1 [BPT, 4,4'-Thiodiphenol]", "assayed.system": "Aryl hydrocarbon receptor (Rattus norvegicus, UniProt P41738)", "measurement": "masked by cytotoxicity"}
{"compound": "C=CCOc1ccc(S(=O)(=O)c2ccc(O)cc2)cc1 [BPS-MAE, 4-[[4-(Allyloxy)phenyl]sulfonyl]phenol]", "assayed.system": "Aryl hydrocarbon receptor (Rattus norvegicus, UniProt P41738)", "measurement": "no effect"}
{"compound": "CC(c1ccc(O)cc1)c1ccc(O)cc1 [BPE, 4,4′-Ethylidenbisphenol]", "assayed.system": "Aryl hydrocarbon receptor (Rattus norvegicus, UniProt P41738)", "measurement": -4.12}
{"compound": "Oc1ccc(Cc2ccc(O)cc2)cc1 [BPF, Bis(4-hydroxyphenyl)methane]", "assayed.system": "Aryl hydrocarbon receptor (Rattus norvegicus, UniProt P41738)", "measurement": "masked by cytotoxicity"}
{"compound": "CC(C)(c1ccc(O)c(-c2ccccc2)c1)c1ccc(O)c(-c2ccccc2)c1 [BPPH, 2,2-Bis(2-hydroxy-5-biphenylyl)propane]", "assayed.system": "Aryl hydrocarbon receptor (Rattus norvegicus, UniProt P41738)", "measurement": -5.02}

Report logEC10 for O=S(=O)(c1ccc(O)cc1)c1ccccc1O [2,4-BPS, 2,4'-Dihydroxydiphenyl sulfone]
no effect

# return recorded logEC10 for entry CC(C)c1cc(C(C)(C)c2ccc(O)c(C(C)C)c2)ccc1O [BPG]
no effect

----------
Test system: HEK293T (ERα)
cond: against baseline cytotoxicity
endpoint: Toxic ratio (TR) TRERα
Could you keep your reply to the number by itself?

Here are 2 molecules together with their reported answers.
{"molecule": "O=C(OCc1ccccc1)c1ccc(O)cc1 [BzPB, Benzyl 4-hydroxybenzoate]", "measurement": 0.39}
{"molecule": "CC(C)c1cc(C(C)(C)c2ccc(O)c(C(C)C)c2)ccc1O [BPG]", "measurement": 0.21}

Next molecule, please.
Return value of Toxic ratio (TR) TRERα for input CC(C)(c1ccc(O)c(-c2ccccc2)c1)c1ccc(O)c(-c2ccccc2)c1 [BPPH, 2,2-Bis(2-hydroxy-5-biphenylyl)propane] , no commentary.
0.13

----------
System: MCF7 (ARE/MMP)
cond: MMP bioassay cytotoxicity; dosing range all; log-logistic model
endpoint: logIC10
Answer with a bare number; do not write a unit.

Answered cases to consult:
{"compound": "Oc1ccc(Sc2ccc(O)cc2)cc1 [BPT, 4,4'-Thiodiphenol]", "logIC10": -3.69}
{"compound": "CC(C)(c1ccc(OCC2CO2)cc1)c1ccc(OCC2CO2)cc1 (stereo not drawn) [BADGE, Bisphenol A diglycidyl ether]", "logIC10": -4.10}

// below: logIC10 requested for another compound
# return recorded logIC10 for entry Oc1ccc(C(c2ccc(O)cc2)(C(F)(F)F)C(F)(F)F)cc1 [BPAF]
-4.57

----------
System: H4IIe (AhR CALUX)
cond: Bioassay AhR; cytotoxicity; dosing range all; log-logistic model fit

{"compound": "CC(C)(c1ccc(OCC2CO2)cc1)c1ccc(OCC2CO2)cc1 (stereo not drawn)", "logIC10": "no cytotoxicity"}
{"compound": "Cc1ccc(S(=O)(=O)NC(=O)Nc2ccc(Cc3ccc(NC(=O)NS(=O)(=O)c4ccc(C)cc4)cc3)cc2)cc1", "logIC10": "no cytotoxicity"}
{"compound": "Cc1ccc(S(=O)(=O)NC(=O)Nc2cccc(OS(=O)(=O)c3ccc(C)cc3)c2)cc1", "logIC10": "no cytotoxicity"}

----------
Test system: MCF7 (ARE/MMP)
cond: cytotoxicity, MCF7, ARE readout
endpoint: IC10, MCF7, ARE (µM)
Return type: number; implicit unit µM.

Recorded results for 3 compounds are shown here.
{"compound": "CC(C)(c1cc(Cl)c(O)c(Cl)c1)c1cc(Cl)c(O)c(Cl)c1 [TCBPA, 2,2',6,6'-Tetrachlorobisphenol A]", "IC10, MCF7, ARE [µM]": 78.4}
{"compound": "Oc1ccc(Cc2ccc(O)cc2)cc1 [BPF, Bis(4-hydroxyphenyl)methane]", "IC10, MCF7, ARE [µM]": 656}
{"compound": "O=S(=O)(c1ccc(O)cc1)c1ccc(OCc2ccccc2)cc1 [BPS-MPE, 4-[4-(benzyloxy)benzenesulfonyl]phenol]", "IC10, MCF7, ARE [µM]": 79.1}

Answer with reported IC10, MCF7, ARE of CC(c1ccccc1)(c1ccc(O)cc1)c1ccc(O)cc1 [BPAP, 4,4'-(1-Phenylethylidene)bisphenol]
31.4

Identify measured IC10, MCF7, ARE corresponding to CC(C)c1cc(C(C)(C)c2ccc(O)c(C(C)C)c2)ccc1O [BPG]
6.03

Given the compound COC(=O)C(c1ccc(O)cc1)c1ccc(O)cc1 [Bz, Methyl bis(4-hydroxyphenyl)acetate] , write its reported IC10, MCF7, ARE.
496

Give reported IC10, MCF7, ARE value for Oc1ccc(C2(c3ccc(O)cc3)CCCCC2)cc1 [BPZ, 1,1'-Bis(4-hydroxyphenyl)cyclohexane]
72.7

Name the recorded IC10, MCF7, ARE of the compound listed here: Oc1ccc(C(c2ccc(O)cc2)(C(F)(F)F)C(F)(F)F)cc1 [BPAF]
18.4

Give me measured IC10, MCF7, ARE, please, for this compound: C=CCOc1ccc(S(=O)(=O)c2ccc(O)cc2)cc1 [BPS-MAE, 4-[[4-(Allyloxy)phenyl]sulfonyl]phenol]
386
